# pEC50 per entry
Molecular target: T1, human GLP-1 receptor (hGLP-1r) (Homo sapiens, UniProt P43220)
T1 construct: expressed in transfected cells
T1 sequence (P43220 24-463): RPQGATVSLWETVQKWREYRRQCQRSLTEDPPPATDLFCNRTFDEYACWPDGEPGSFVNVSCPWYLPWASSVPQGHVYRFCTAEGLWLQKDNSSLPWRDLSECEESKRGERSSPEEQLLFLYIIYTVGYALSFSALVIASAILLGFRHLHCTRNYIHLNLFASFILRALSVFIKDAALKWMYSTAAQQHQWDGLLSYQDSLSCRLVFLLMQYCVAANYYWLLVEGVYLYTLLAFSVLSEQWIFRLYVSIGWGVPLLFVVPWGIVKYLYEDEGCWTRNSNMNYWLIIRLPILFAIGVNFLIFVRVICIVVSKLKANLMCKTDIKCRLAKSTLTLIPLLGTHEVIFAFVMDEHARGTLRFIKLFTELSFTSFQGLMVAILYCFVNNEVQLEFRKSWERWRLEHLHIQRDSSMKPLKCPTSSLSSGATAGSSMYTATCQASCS
Assay: BSA-cAMP assay, cells expressing human GLP-1 receptor
Assay type: cell-based
Conditions: BSA-cAMP assay; batch 1 unless a batch is given; read-out: cAMP activity hGLP1r (EC50)
Scale: pEC50 equals -log10([C]), with [C] in mol/L.

Check out these entries, answers already filled in.
GET /values?readout=pEC50&item= IP187 (protein, /note=“Description of Artificial Sequence Synthetic Peptide-linker-hinge polypeptide”) HGEGTFTSDVSSYLEGQAAKEFIAWLVKGAPPGGGGGSGGGGSGGGGSGGGGSATHTCPPCPAPEF
10.43

Now consider IP192 (protein, /note=“Description of Artificial Sequence Synthetic Peptide-linker-hinge polypeptide”) HGEGTFTSDVSSYLEGQAAKEFIAWLVKGAAAGGSGSTASSGSGSATGGGGAATSTCPPCPAPEF and answer again.
10.37

Now consider IP170 (protein, /note=“Description of Artificial Sequence Synthetic Peptide-linker-hinge polypeptide”) YSEGTFTSDVSSYMERQAIDEFIAWLLKGGAAAGGSGSTASSGSGSATGGGGAATHTCPPCPAPEF and answer again.
9.92

Attention now shifts to the item below.
GET /values?readout=pEC50&item= IP191 (protein, /note=“Description of Artificial Sequence Synthetic Peptide-linker-hinge polypeptide”) HGEGTFTSDVSSYLEGQAAKEFIAWLVKGAAAGGSGSTASSGSGSATGGGGAATYTCPPCPAPEF
10.24
